Hello, the source for this data is paper PMC2946983, in case you need it.

# measured_target: cloned human serotonin 5-HT1A receptor (Homo sapiens)
# Sequence (P08908 1-422): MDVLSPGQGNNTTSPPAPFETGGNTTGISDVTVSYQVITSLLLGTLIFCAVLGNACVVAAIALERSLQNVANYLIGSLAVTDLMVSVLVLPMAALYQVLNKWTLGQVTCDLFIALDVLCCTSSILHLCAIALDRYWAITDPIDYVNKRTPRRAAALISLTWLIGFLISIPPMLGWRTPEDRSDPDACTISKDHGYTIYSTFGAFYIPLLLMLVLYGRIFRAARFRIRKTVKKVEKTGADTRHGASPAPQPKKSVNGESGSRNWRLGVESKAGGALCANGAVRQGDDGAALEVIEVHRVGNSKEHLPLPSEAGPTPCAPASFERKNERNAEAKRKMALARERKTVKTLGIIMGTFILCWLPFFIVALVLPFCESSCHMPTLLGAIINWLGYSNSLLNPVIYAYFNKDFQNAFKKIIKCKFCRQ
observation_type: pKd
// pKd: -log10(molar conc.)

The measured pKd that COc1ccccc1N1CCN(CCN(C(=O)c2ccc(F)cc2)c2ccccn2)CC1 [[^3H]MPPF, reference compound] showed for cloned human serotonin 5-HT1A receptor (Homo sapiens) is 9.57
